So I've got a bunch of sequences here, and I need their apparent Kd values.
# Tested on: MS2 coat protein
# assayOverview: apparent Kd, MS2 coat protein; higher = weaker binding; RNA-MaP array; theophylline 2 mM where present
# testContext: designed as: OFF switch for theophylline; no ligand
One number for each entry, in nM.

sequenceInput | unitsOfMeasure | apparent Kd
AUAACAUGAGGAUCACCCAUGUAAGCAGAUACCAGCUAGGAAACUAGCCCUUGGCAGCUGCAAUCCUCAUGUAUUGCAGCUGCAA | nM | 15.7

I would be grateful if you could provide apparent Kd for each of the following entries.
1. ACAUGAAGAUUAAUCGUGGGCAUACUCGAUACCAGUAUUUUAACCUACCCUUGGCAGCGACAUGAGGAUCACCCAUGUGAGAUGA
2. UCUGGGUGCGCAAGGACCUGGAGUUGCGAUACCAGCACGGUAACGUGCCCUUGGCAGCGCACAUGAGGAUCACCCAUGUGGUGUU
3. ACGAUAGGACAUGAGGAUCACCCAUGUGAUACCAGCCUGGAAACAGGCCCUUGGCAGCACAAAUACUCCAGAAACCUAUCGAAAA
4. UAUAUAGUGAUGGAUACCAGCAGAGAAAACGUUUAUCCUAACAUGAGGAUCACCCAUGUAUGCCCUUGGCAGCUGUUGUUAUAUA
5. UAUAUAUAGAUGGAUACCAGCAGAGAAAACGUUUAUCCUAACAUGAGGAUCACCCAUGUAUGCCCUUGGCAGCUGUUUAUAUAUA
6. ACAUGAGGAUCACCCAUGUUCCUCGCCGAUACCAGUGAAGAAUUACGCCCUUGGCAGCGGAAAGAGUAUUUUGGAGAUGAGGUAC
7. AGCAUACAUUCUGAUACCAGAGACAUGAGGAUCACCCAUGUCCGAUCGUCCUGCCUCAGACUCCCUUGGCAGCAGGAUGUGUGCU
8. GUAUGGAAACAUACUAGGGUAUCAUGAGAUACCAGUACAGAAAUGUACCCUUGGCAGCUCUAGCAUACAUGAGGAUCACCCAUGU

Result:
[21.6, 310, 258, 20.1, 24.4, 69.8, 13.9, 14]

Q: Report measured apparent Kd; entry is `AAUAAGCAGCUGCCUUCCUCAUGAGCAGAUACCAGCUAGGAAACUAGCCCUUGGCAGCUGCAACAUGAGGAUCACCCAUGUAAUA`
Result: 65.8

====

# Tested on: MS2 coat protein
# assayOverview: apparent Kd, MS2 coat protein; higher = weaker binding; RNA-MaP array
# testContext: designed as: ON switch for flavin mononucleotide; no ligand
Provide the recorded apparent Kd for the entries that follow.
Answers are plain numbers, in nM.

# count of solved cases: 3
sequenceInput | testedSystem | measurementName | value
ACAUGAGGAUCACCCAUGUAAACAAGGUUGGAGACCCGCAAUGAGGAUAUCAUAAAGAAACCCAAUGAGAAGGCAUGAUCACAA | MS2 coat protein | apparent Kd | 22.3
AAGGAGGAGCAAGGAUAUCAGUGUAUACGCCACAUGAGGAUCACCCAUGUCCGGAGCGAGAUUCCUGAGAAGGUGCCGCCUAGC | MS2 coat protein | apparent Kd | 7.25
GGAAAACACAAGAAGGCGUCGGACUGGGCGAGACGAGGAUAUUGUAGCUCUAAUCGUGGACAGACAUGAGGAUCACCCAUGUCG | MS2 coat protein | apparent Kd | 7.93

Q: Kindly indicate its recorded apparent Kd. Item: `UCGGUGUAAGAGAAGGAAGUGUUCGCAGGCCAAGGCUCAUUGGCUACAUGAGGAUCACCCAUGUCUUAGGAUAUCUGCGCUCCG`
Result: 45.6

====

# Test system: MS2 coat protein
# assayOverview: apparent Kd, MS2 coat protein; higher = weaker binding; RNA-MaP array
# testContext: ligand present: flavin mononucleotide; designed as: OFF switch for flavin mononucleotide
Give measured apparent Kd for each item. Keep answers brief.
Numbers only, in nM.

sequenceInput | apparent Kd [nM]
AUGUUCGUAAAGAAGGAUCAGGUGAUAUAUGUCAACAUGAGGAUCACCCAUGUGCGGGACGUAAGAUAGGAUAUUUGAGAUCAU | 10.8
CUCGUUUAAGAGGAUAUUUCGUCCGCUCUCGGGAAAGAAGGCUUGACAUGAGGAUCACCCAUGUAUACGUUGGA | 13.9

Batch: apparent Kd for all items listed.
1. ACUGCGCACGGGCUCCACAUGAGGAUCACCCAUGUUGAACUGAGAAGGGAAAGAAGAAACUACAUUCAGGAUAUCAUUUCACCA
2. CACCUUCGUCAAGGAUAUGCGUAAUGUAUAAUCGCAGAAGGUGACGCGAUCUUCAUAACAUGAGGAUCACCCAUGUGGUGAACU

Result:
1. 46.6
2. 312

====

# System: MS2 coat protein
# assayOverview: apparent Kd, MS2 coat protein; higher = weaker binding; RNA-MaP array
# testContext: designed as: ON switch for theophylline; no ligand
measurementName: apparent Kd
Field: value (include unit after the number)

Below, 5 sequences whose answers are already recorded.
sequenceInput | apparent Kd
CACUAUGAGGUCGAUACCAGUACUGAGUUGUACAUGAGGAUCACCCAUGUAAAUGUUCGCUACCCUUGGCAGCGAUAACAUUGCA | 430 nM
AACAGACGAGACGAUACCAGUCUCUUAGCGCACAUGAGGAUCACCCAUGUUGGCAAGCUCGACCCUUGGCAGCGUACCUUUGAUC | 24.4 nM
GAUGCACAUGAGGAUCACCCAUGUCCUGAUACCAGAACGCGACUUUUCCCUUGGCAGCAGAAUUCACUUUUUUACAUUCAUACUG | 22.1 nM
GCAUAGUAAAAUGAUACCAGAGUCAAAACAGACAUGAGGAUCACCCAUGUGCAUAUACAACUCCCUUGGCAGCAUUAAAACGGGA | 17.1 nM
AACAGUAUUAUAGAUACCAGCAGGUCAUAAGACAUGAGGAUCACCCAUGUGAAUGAGGUAUGCCCUUGGCAGCUAUGAGGUCCUC | 173 nM

Q: Give the reported apparent Kd for this sequence. `ACCUUACAUGAGGAUCACCCAUGUCGUGAUACCAGAAACCACGUAUUCCCUUGGCAGCACACCCGUGAUGAGAUUGUCGGUUUUG`
Result: 57.4 nM

====

# System: MS2 coat protein
# assayOverview: apparent Kd, MS2 coat protein; higher = weaker binding; RNA-MaP array
# testContext: designed as: OFF switch for tryptophan; no ligand
measurementName: apparent Kd

sequenceInput | measurementName | value
GCCGCCGGUGCUUCAUUCCCUGAGCGACGGCGAGGACCGGUACGGCCGCCACUCGGCUCGGUACAUGAGGAUCACCCAUGUCUUU | apparent Kd | 44.7 nM
GGUUCCUCAACGGCCGCCACUUACUGGAUUAGUGGACCUACUUGCAACAUGAGGAUCACCCAUGUAAGGACCGGGUUGCUCCCAA | apparent Kd | 68.2 nM
AGUCCUCUGUACCCUGAUGCCCUCACUUUACGAGGACCGGUACGGCCGCCACUCGAAUCCCAACAUGAGGAUCACCCAUGUCGAC | apparent Kd | 34.8 nM
GGUGUUACGUCGGCCGCCACUAUACUACAUGAGGAUCACCCAUGUCAUCCCUUCAAUUGGUAGCCUAGGACCGGGACAGAAUUCG | apparent Kd | 43.4 nM
GACAUAUGCUAUGCGCAGGCUACCCUCAGCCGAGGACCGGUACGGCCGCCACUCGUACUACCACAUGAGGAUCACCCAUGUUAUC | apparent Kd | 17.2 nM
AUACCACCUUCGGCCGCCACUAUGUAUGGGUUCCCAACGUUGAAGGACAUGAGGAUCACCCAUGUUAGGACCGGGAAAAGUGCCU | apparent Kd | 87.9 nM

Now take the following sequence into account.
Q: Read off the recorded apparent Kd for `AUAUCUUCCACGGCCGCCACUGAAUGGUGCCCAAGGUCGAUCGCAGACAUGAGGAUCACCCAUGUCAGGACCGGGUGGUACUACG`
Result: 14.7 nM

====

# System: MS2 coat protein
# assayOverview: apparent Kd, MS2 coat protein; higher = weaker binding; RNA-MaP array; FMN 200 µM where present
# testContext: ligand present: flavin mononucleotide; designed as: OFF switch for flavin mononucleotide
Assignment: determine reported apparent Kd for the given sequences.

Worked cases, apparent Kd given:
sequenceInput | testedSystem | apparent Kd
GACCGUCACAGUUACCGGUUGAACGAGGAUAUGAUUACUGGGCCUGCACAUGAGGAUCACCCAUGUCAGAAGGCGUUCAGUCCC | MS2 coat protein | 18.9 nM
GUCUGGUUAGGAUAUACAGUGUCCACGAGUUAGUUGCCCUAACAUGAGGAUCACCCAUGUAGAAGGAGCGAGAA | MS2 coat protein | 22.6 nM
CCAGGCUUCGAGAAGGACAUGAGGAUCACCCAUGUGCGUGUGAAGCAGCCGUGAGGCUGCAUCAUGUAGGAUAUCGGAGUCUGA | MS2 coat protein | 396 nM
CGAGUUUUUGAGAAGGCAUAUAAUAAGAUUUCCCAUGUUAACAUGAGGAUCACCCAUGUUUAGUAUGAGGAUAUCAGUAGGUCG | MS2 coat protein | 5.8 nM
GUGGUAUUCGUAGGAUAUCCGUCGCCACCGUGUGGAGAAGGACGAACAUGAGGAUCACCCAUGUAUCAUGGUGUGGACGUUGUC | MS2 coat protein | 88.4 nM

Please report apparent Kd for every entry that follows.
1. CGGGAGUCAGGAUAUACGAACAUGUCGCCAGAUGUCAUGGUACAUGAGGAUCACCCAUGUAGAAGGGAGGAGAU
2. GCAUGCUAUGUCAGGAUAUACCUCUGGAUACAUAGGUAGAAGGGACAUGAGGAUCACCCAUGUCCUCAUCAUGC
3. CGACCCUGAACGAAAUCAUGCAGUCAGGAUAUACAUGAGGAUCACCCAUGUGCGUACCAACUCGUGUAGAAGGGACUUUCAGGA
4. AUCAUGUCAGGAUAUGUGAUAUGGAUCUUCGGAUCAAGUUCACAGAAGGGACAUGAGGAUCACCCAUGUCGAAC
5. AAAAACGGAGGAUAUACAAAAAAAAAAAAAAAAAAAAUGGGACAUGAGGAUCACCCAUGUAGAAGGCCGAAAAA

Result:
103 nM
23.8 nM
32.3 nM
91.7 nM
164 nM

// for each sequence below, give its apparent Kd
1. AGAAACUACGAGAAGGACAUAUGACCAAGAACAAACAUGAGGAUCACCCAUGUAGGAUAUCGUAGUUUCAGGAUCGUGAGAUCA
2. GCAGCAUCUGCAGGAUAUCAGCACGUGUAGUGCUGAGAAGGGCACAUGAGGAUCACCCAUGUGAUCAAUUAAUAUAGAUGCUGC
3. GCACUGGCAGGAUAUACAUGAGGAUCACCCAUGUGAUCCCUUAAGUACAAAAGUACAAGUAGAAGGGCCUGUGC
4. AUUAUAUAGAAAGGAUAUAGAAUAUUAUUUUAACAUGAGGAUCACCCAUGUAACCUUAUGUGUAGCUAGAAGGUUCAUUUAUUA
5. AAAAUCGAAGGAUAUACAUAUCCUUUAGCGGCAAUGCCGCGACAUGAGGAUCACCCAUGUAGAAGGUCGUAAAA

Result:
1. 12.9 nM
2. 15.8 nM
3. 188 nM
4. 78.1 nM
5. 31.5 nM
